meta.source: patent US20220259289A1

target: unrelated Fc-fused recombinant protein (negative control); assay: ELISA, bacterial lysate on plate-bound antigen, luminescence
# ELISA Fc Control (RLU) per entry
Field: numeric (RLU). Do not append units.

Recorded results for 6 binders are shown here.
>>> result_value("ISOP120GR5P1F5 (designed binder, not shown: small tags and cut ends, FN3 domain (Centyrin); tested as E. coli lysate) LPAPKNLVVSRVTEDSARLSWTAPDAAFDSFEIDYWEVESEGEAIVLFVPGSERSYDLTGLKPGTEYHVHIVGVKGGTPSYPLWADFTT")
400
>>> result_value("ISOP120GR5P1H11 (designed binder, not shown: small tags and cut ends, FN3 domain (Centyrin); tested as E. coli lysate) LPAPKNLVVSRVTEDSARLSWTAPDAAFDSFYIAYWEYWGNGEAIGLIVPGSERSYDLTGLKPGTEYHVHIVGVKGGAGSVPLWANFTT")
640
>>> result_value("ISOP120BR5P1D9 (designed binder, not shown: small tags and cut ends, FN3 domain (Centyrin); tested as E. coli lysate) LPAPKNLVVSRVTEDSARLSWTINSHIFDSFLIQYQESEKVGEAIVLTVPGSERSYDLTGLKPGTEYTVSIYGVWGTKYWQAQSNPLSAIFTT")
560
>>> result_value("ISOP120HR5P1B4 (designed binder, not shown: small tags and cut ends, FN3 domain (Centyrin); tested as E. coli lysate) LPAPKNLVVSRVTEDSARLSWTAPDAAFDSFSIYYGEYYNLGEAIVLTVPGSERSYDLTGLKPGTEYVVTIYGVKGGGYSNPLSAIFTT")
320
>>> result_value("ISOP120HR5P1H4 (designed binder, not shown: small tags and cut ends, FN3 domain (Centyrin); tested as E. coli lysate) LPAPKNLVVSRVTEDSARLSWTAPDAAFDSFDILYLEPYQEGEAIVLTVPGSERSYDLTGLKPGTEYLVTIYGVKGGYYSLPLSAIFTT")
480
>>> result_value("ISOP120GR5P1A10 (designed binder, not shown: small tags and cut ends, FN3 domain (Centyrin); tested as E. coli lysate) LPAPKNLVVSRVTEDSARLSWTAPDAAFDSFEIPYIEVETIGEAIWLHVPGSERSYDLTGLKPGTEYSVGINGVKGGHTSNPLSARFTT")
400

What value of ELISA Fc Control (RLU) has been recorded for this entry: ISOP120HR5P1B5 (designed binder, not shown: small tags and cut ends, FN3 domain (Centyrin); tested as E. coli lysate) LPAPKNLVVSRVTEDSARLSWTAPDAAFDSFIIRYIEEGYYGEAIVLTVPGSERSYDLTGLKPGTEYHVGIEGVKGGYYSYPLSAIFTT
320

What value of ELISA Fc Control (RLU) has been recorded for this entry: ISOP120BR5P1D2 (designed binder, not shown: small tags and cut ends, FN3 domain (Centyrin); tested as E. coli lysate) LPAPKNLVVSRVTEDSARLSWIRKHNHVKWFDSFLIQYQESEKVGEAIVLTVPGSERSYDLTGLKPGTEYTVSIYGVGFLIDTDDSNPLSAIFTT
720

What value of ELISA Fc Control (RLU) has been recorded for this entry: ISOP120HR5P1G4 (designed binder, not shown: small tags and cut ends, FN3 domain (Centyrin); tested as E. coli lysate) LPAPKNLVVSRVTEDSARLSWTAPDAAFDSFEIYYREYWYSGEAIVLTVPGSERSYDLTGLKPGTEYLVTIYGVKGGWYSDPLSAIFTT
320

What value of ELISA Fc Control (RLU) has been recorded for this entry: ISOP120BR5P1E2 (designed binder, not shown: small tags and cut ends, FN3 domain (Centyrin); tested as E. coli lysate) LPAPKNLVVSRVTEDSARLSWAQELDHFDSFLIQYQESEKVGEAIVLTVPGSERSYDLTGLKPGTEYTVSIYGVYWTWWVRWNSNPLSAIFTT
5680

What value of ELISA Fc Control (RLU) has been recorded for this entry: ISOP120FR5P1F1 (designed binder, not shown: small tags and cut ends, FN3 domain (Centyrin); tested as E. coli lysate) LPAPKNLVVSRVTEDSARLSWTAPDAAFDSFTIYYFENENGGEAIVLTVPGSERSYDLTGLKPGTEYLVTIYGVKGCDWSDPLSAIFTT
480

What value of ELISA Fc Control (RLU) has been recorded for this entry: ISOP120ER5P1H4 (designed binder, not shown: small tags and cut ends, FN3 domain (Centyrin); tested as E. coli lysate) LPAPKNLVVSRVTEDSARLSWTAPDAAFDSFNIMYLEDVQCGEAIVLTVPGSERSYDLTGLKPGTEYHVGINGVKGGLRSFPLSAIFTT
480
